- experimental target: displayed BmAChE (Bombyx mori, UniProt A5A2M5)
- Construct: signal peptide and hydrophobic C-terminal tail removed; N-terminal FLAG tag; (Gly4Ser)3 linker to S. cerevisiae AGalpha1 anchor at C-terminus; bmace about 1900 bp; primers encode N-terminal RSWANH and C-terminal TGPYSS
- Sequence (A5A2M5 entry or part of it): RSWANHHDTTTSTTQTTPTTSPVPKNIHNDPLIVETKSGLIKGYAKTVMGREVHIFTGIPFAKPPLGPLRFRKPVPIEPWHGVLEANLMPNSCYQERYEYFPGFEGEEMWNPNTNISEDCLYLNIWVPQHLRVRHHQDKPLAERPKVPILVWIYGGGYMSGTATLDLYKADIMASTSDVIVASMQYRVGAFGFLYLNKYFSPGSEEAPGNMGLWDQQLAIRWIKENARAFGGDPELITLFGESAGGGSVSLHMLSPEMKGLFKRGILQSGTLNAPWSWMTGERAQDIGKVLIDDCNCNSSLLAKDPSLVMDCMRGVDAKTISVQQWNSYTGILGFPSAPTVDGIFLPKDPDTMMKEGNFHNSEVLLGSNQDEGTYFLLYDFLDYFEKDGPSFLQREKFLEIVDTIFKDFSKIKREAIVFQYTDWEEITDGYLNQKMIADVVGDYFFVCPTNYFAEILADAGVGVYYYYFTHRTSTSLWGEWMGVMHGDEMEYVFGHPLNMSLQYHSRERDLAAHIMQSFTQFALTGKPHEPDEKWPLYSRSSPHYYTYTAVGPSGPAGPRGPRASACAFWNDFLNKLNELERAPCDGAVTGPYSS
- experiment notes: Ellman assay, yeast cell suspension displaying the enzyme
experimental readout: IC50 (nM)

[[record]]
compound = "CNC(=O)Oc1cc(C)c(SC)c(C)c1 [methiocarb]"
experimental_readout = "IC50"
recorded_value = 65.8

[[record]]
compound = "CNC(=O)ON=C(C)SC [methomyl]"
experimental_readout = "IC50"
recorded_value = 64.1

[[record]]
compound = "COP(=O)(OC)C(O)C(Cl)(Cl)Cl (stereo not shown) [trichlorphon]"
experimental_readout = "IC50"
recorded_value = 240

[[record]]
compound = "COP(N)(=S)Oc1ccccc1C(=O)OC(C)C (stereo not shown) [isocarbophos]"
experimental_readout = "IC50"
recorded_value = 910

[[record]]
compound = "COP(=O)(OC)OC=C(Cl)Cl [dichlorphos]"
experimental_readout = "IC50"
recorded_value = 903

[[record]]
compound = "CNC(=O)Oc1ccccc1C(C)C [isoprocarb]"
experimental_readout = "IC50"
recorded_value = 11.1

[[record]]
compound = "CNC(=O)Oc1ccc2c(c1)[C@]1(C)CCN(C)[C@@H]1N2C [eserine]"
experimental_readout = "IC50"
recorded_value = 41.7

[[record]]
compound = "CCOP(=S)(OCC)Oc1ccc([N+](=O)[O-])cc1 [parathion]"
experimental_readout = "IC50"
recorded_value = 1130

[[record]]
compound = "CNC(=O)CSP(=S)(OC)OC [dimethoate]"
experimental_readout = "IC50"
recorded_value = 1140

[[record]]
compound = "CNC(=O)Oc1cccc2c1OC(C)(C)C2 [carbofuran]"
experimental_readout = "IC50"
recorded_value = 1.92

[[record]]
compound = "CCCCN(CCCC)SN(C)C(=O)Oc1cccc2c1OC(C)(C)C2 [carbosulfan]"
experimental_readout = "IC50"
recorded_value = 113

[[record]]
compound = "COP(N)(=O)SC (stereo not shown) [methamidophos]"
experimental_readout = "IC50"
recorded_value = 1070

[[record]]
compound = "CCOC(=O)CC(SP(=S)(OC)OC)C(=O)OCC (stereo not shown) [malathion]"
experimental_readout = "IC50"
recorded_value = 1410


meta.source: paper PMC3734245
